Consider the following compounds; for each one, report its pIC50.
- System: HCT-116
- assayMethodText: Cytotoxicity against human HCT-116 cells assessed as inhibition of cell growth
- Type: functional, cell-based
pIC50 is defined as minus the log10 of a concentration measured in mol/L.

Problem: Could you tell me which pIC50 is on file for `C=C1C(=O)[C@@]23[C@H](O)C[C@@H]4C(C)(C)CC[C@H](OC(=O)C(C)(C)C)[C@@]4(C)[C@@H]2CC[C@@H]1[C@H]3O` ?
Result: 5.37

Problem: Param item = `C=C1C(=O)[C@@]23[C@H](O)C[C@@H]4C(C)(C)CC[C@H](OC(=O)CC)[C@@]4(C)[C@@H]2CC[C@@H]1[C@H]3O` ; retrieve measured pIC50.
Result: 5.01

Problem: State the recorded pIC50 for this entry: `C=C1C(=O)[C@@]23[C@@H]4OC(C)(C)O[C@@H]2C[C@@H]2C(C)(C)CC[C@H](OC(C)=O)[C@@]2(C)[C@@H]3CC[C@@H]14`
Result: 4.37

Problem: Fill blank: measured pIC50 of the compound `C=C1C(=O)[C@@]23[C@@H]4OC(C)(C)O[C@@H]2C[C@@H]2C(C)(C)CCC(=O)[C@@]2(C)[C@@H]3CC[C@@H]14` is ____.
Result: 4.11

Problem: Query (compound): `C=C1C(=O)[C@@]23[C@@H]4OC(C)(C)O[C@@H]2C[C@@H]2C(C)(C)CC[C@H](OC(=O)CCC)[C@@]2(C)[C@@H]3CC[C@@H]14` ; field requested: pIC50
Result: 5.41

Problem: If you can, please state the reported pIC50 value of `C=C1C(=O)[C@@]23[C@H](O)C[C@@H]4C(C)(C)CC[C@H](OC(=O)CCCCC)[C@@]4(C)[C@@H]2CC[C@@H]1[C@H]3O` .
Result: 5.40

Problem: Given the entry `C=C1C(=O)[C@@]23[C@H](O)C[C@@H]4C(C)(C)CC[C@H](OC(C)=O)[C@@]4(C)[C@@H]2CC[C@@H]1[C@H]3O` , report its measured pIC50.
Result: 4.89

Problem: // lookup pIC50 for `C=C1C(=O)[C@@]23[C@H](O)C[C@@H]4C(C)(C)CC[C@H](OC(=O)CCCC)[C@@]4(C)[C@@H]2CC[C@@H]1[C@H]3O`
Result: 5.38

Problem: Recorded pIC50 for `C=C1C(=O)[C@@]23[C@@H]4OC(C)(C)O[C@@H]2C[C@@H]2C(C)(C)CC[C@H](OC(=O)CCCC)[C@@]2(C)[C@@H]3CC[C@@H]14` , please?
Result: 5.00

Problem: What does the record list as pIC50 for `C=C1C(=O)[C@@]23[C@@H]4OC(C)(C)O[C@@H]2C[C@@H]2C(C)(C)CC[C@H](OC(=O)CCCCC)[C@@]2(C)[C@@H]3CC[C@@H]14` ?
Result: 5.17

Problem: Any idea what its pIC50 is? The compound is `C=C1C(=O)[C@@]23[C@@H]4OC(C)(C)O[C@@H]2C[C@@H]2C(C)(C)CC[C@H](OC(=O)C(C)(C)C)[C@@]2(C)[C@@H]3CC[C@@H]14`
Result: 4.46

Problem: Which measured pIC50 value corresponds to `C=C1C(=O)[C@@]23[C@H](O)C[C@@H]4C(C)(C)CC[C@H](O)[C@@]4(C)[C@@H]2CC[C@@H]1[C@H]3O` ?
Result: 4.92

The reported measurements were obtained from ChEMBL document CHEMBL5241128.
